Listing of entries alongside the reported MIC.
- System: M. bovis BCG Pasteur
- method: microbe, parasite or virus in culture
- Format: cell-based
- condition summary: Mycobacterium tuberculosis variant bovis BCG, BCG, read-out: MIC M. bovis BCG, SPOTi, value in square brackets

Worked set:
[
  {
    "compound": "C[C@@H]1NC(Cc2ccc3c(c2)OCO3)c2ccc(O)cc2[C@H]1O (stereo partly shown) [Compound 25]",
    "MIC": "> 319 µM"
  },
  {
    "compound": "Oc1cc2c(cc1O)C(Cc1ccccc1Br)NCC2 (stereo not shown) [Compound 21]",
    "MIC": "> 299 µM"
  },
  {
    "compound": "COc1ccc(I)c2c1C(Cc1ccc3c(c1)OCO3)NCC2 (stereo not shown) [Compound 38]",
    "MIC": "118 µM"
  },
  {
    "compound": "Oc1cc2c(cc1O)C(c1cccc3c1OCO3)NCC2 (stereo not shown) [Compound 29]",
    "MIC": "> 351 µM"
  },
  {
    "compound": "COc1ccc(CC2NCCc3cc(O)c(O)cc32)cc1OC (stereo not shown) [Compound 18]",
    "MIC": "> 317 µM"
  }
]

## Task # MIC lookup, item COc1cc(CC2NCCc3cc(O)c(O)cc32)ccc1O (stereo not shown) [Compound 19]
## Result > 332 µM

## Task # MIC lookup, item Oc1ccc2c(c1)CCNC2c1cccc2c1OCO2 (stereo not shown) [Compound 34]
## Result > 371 µM

## Task # MIC lookup, item COc1ccc(C2NCCc3cc(O)c(O)cc32)cc1 (stereo not shown) [Compound 5]
## Result > 369 µM

## Task # MIC lookup, item Oc1cc2c(cc1O)C(c1ccccn1)NCC2 (stereo not shown) [Compound 4]
## Result > 413 µM

## Task # MIC lookup, item Oc1cc2c(cc1O)C(c1ccccc1O)NCC2 (stereo not shown) [Compound 8]
## Result > 389 µM

###

- target under test: P-glycoprotein (Homo sapiens)
- Sequence (P08183 whole entry): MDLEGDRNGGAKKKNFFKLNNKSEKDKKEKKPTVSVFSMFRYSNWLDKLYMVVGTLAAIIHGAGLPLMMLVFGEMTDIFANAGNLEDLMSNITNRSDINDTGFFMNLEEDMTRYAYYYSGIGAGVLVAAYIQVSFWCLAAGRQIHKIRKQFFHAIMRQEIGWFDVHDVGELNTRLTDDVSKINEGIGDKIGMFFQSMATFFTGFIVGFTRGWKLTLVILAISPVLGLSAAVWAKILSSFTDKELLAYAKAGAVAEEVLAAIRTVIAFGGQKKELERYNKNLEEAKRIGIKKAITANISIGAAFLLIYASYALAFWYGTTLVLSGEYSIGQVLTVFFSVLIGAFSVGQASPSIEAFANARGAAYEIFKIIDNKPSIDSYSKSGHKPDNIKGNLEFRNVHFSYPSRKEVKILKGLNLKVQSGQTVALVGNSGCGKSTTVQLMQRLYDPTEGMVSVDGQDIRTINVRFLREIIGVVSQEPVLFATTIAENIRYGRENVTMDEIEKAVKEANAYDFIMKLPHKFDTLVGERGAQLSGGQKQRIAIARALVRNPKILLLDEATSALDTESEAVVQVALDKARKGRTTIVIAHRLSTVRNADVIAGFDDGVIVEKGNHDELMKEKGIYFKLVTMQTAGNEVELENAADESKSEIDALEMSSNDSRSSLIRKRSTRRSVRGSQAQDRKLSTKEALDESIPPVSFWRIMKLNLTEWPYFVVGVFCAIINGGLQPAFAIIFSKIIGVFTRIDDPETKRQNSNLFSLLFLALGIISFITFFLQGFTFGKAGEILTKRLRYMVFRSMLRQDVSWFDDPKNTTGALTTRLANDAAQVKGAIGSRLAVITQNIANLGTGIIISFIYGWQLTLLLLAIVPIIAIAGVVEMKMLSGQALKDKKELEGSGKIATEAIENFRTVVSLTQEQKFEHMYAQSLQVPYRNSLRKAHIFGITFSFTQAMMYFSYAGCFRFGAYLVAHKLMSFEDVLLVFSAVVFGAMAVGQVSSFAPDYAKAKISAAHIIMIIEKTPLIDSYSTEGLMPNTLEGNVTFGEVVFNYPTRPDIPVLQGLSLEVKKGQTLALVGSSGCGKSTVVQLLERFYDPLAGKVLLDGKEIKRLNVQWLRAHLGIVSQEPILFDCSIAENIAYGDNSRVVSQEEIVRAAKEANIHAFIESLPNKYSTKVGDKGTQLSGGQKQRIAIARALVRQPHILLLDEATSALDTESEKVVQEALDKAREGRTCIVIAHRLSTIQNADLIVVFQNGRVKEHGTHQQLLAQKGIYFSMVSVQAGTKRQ
- method: in vitro
- condition summary: dog, MDCK-MDR1
observation type: efflux ratio
Write the value as a bare number.

[
  {
    "compound": "Oc1ccc(Br)c2c1C(c1cccc3c1OCO3)NCC2 (centres unmarked)",
    "efflux ratio": 11.9
  }
]

Moving on to the next compound.
## Task # efflux ratio lookup, item Oc1ccc(Br)c2c1C(Cc1ccc3c(c1)OCO3)NCC2 (centres unmarked)
## Result 11.3

###

Listing of entries alongside the reported solubility kinetic at 24 h.
- method: Aqueous kinetic solubility
- Assay type: physicochemical
- condition summary: aqueous with cosolvent or surfactant or cyclodextrin, kinetic from dmso stock, 5% DMSO in PBS, 21°C
Expressed in µg/mL, but write only the number.

[
  {
    "molecule": "Oc1ccc(Br)c2c1C(c1cccc3c1OCO3)NCC2 (centres unmarked)",
    "observation type": "solubility kinetic at 24 h",
    "result units": "µg/mL",
    "measurement": 300
  }
]

Moving on to the next molecule.
## Task # solubility kinetic at 24 h lookup, item Oc1ccc(Br)c2c1C(Cc1ccc3c(c1)OCO3)NCC2 (centres unmarked)
## Result 800

###

Listing of entries alongside the reported Papp B→A at 30 min, 10 μM.
- Test system: MDR-1
- method: MDCK cell permeability assay
- Type: in vitro ADME, canine
- condition summary: dog, MDCK-MDR1; MDCK MDR-1 monolayer, 10 μM, 30 min, basolateral to apical
Expressed in ×10⁻⁶ cm/s, but write only the number.

[
  {
    "compound": "Oc1ccc(Br)c2c1C(c1cccc3c1OCO3)NCC2 (centres unmarked)",
    "result units": "×10⁻⁶ cm/s",
    "Papp B→A at 30 min, 10 μM": 38
  }
]

Moving on to the next compound.
## Task # Papp B→A at 30 min, 10 μM lookup, item Oc1ccc(Br)c2c1C(Cc1ccc3c(c1)OCO3)NCC2 (centres unmarked)
## Result 18.8

###

- System: murine macrophage cell line RAW264.7
- method: Eukaryotic cell toxicity assay, RAW264.7
- Format: cell-based
- condition summary: Mus musculus; RAW264.7, value in square brackets; read-out: GIC50 RAW264.7
observation type: IC50 (µM)
Expressed in µM, but write only the number.

[
  {
    "molecule": "Oc1ccc2c(c1)CCNC2Cc1ccc2c(c1)OCO2 (stereo not drawn)",
    "observation type": "IC50",
    "measurement": 529
  }
]

## Task Hi! What's the reported IC50 for OC[C@@H](O)[C@@H]1NCCc2cc(O)c(O)cc21 on murine macrophage cell line RAW264.7?
## Result 377

## Task Hi! What's the reported IC50 for Oc1cc2c(cc1O)C(Cc1ccc3c(c1)OCO3)NCC2 (stereo not drawn) on murine macrophage cell line RAW264.7?
## Result 602

###

Listing of entries alongside the reported MIC.
- Test system: M. tuberculosis H37Rv
- method: SPOTi growth inhibition assay, M. tuberculosis H37Rv
- Type: cell-based
- condition summary: Mycobacterium tuberculosis, H37RV, SPOTi, value in square brackets; read-out: MIC M. tuberculosis H37Rv
Expressed in µM, but write only the number.

Worked set:
[
  {
    "molecule": "CO[C@H]1/C=C/O[C@@]2(C)Oc3c(C)c(O)c4c(O)c(c(/C=N/N5CCN(C)CC5)c(O)c4c3C2=O)NC(=O)/C(C)=C\\C=C\\[C@H](C)[C@H](O)[C@@H](C)[C@@H](O)[C@@H](C)[C@H](OC(C)=O)[C@@H]1C [Rifampicin, reference compound]",
    "MIC (µM)": 0.061
  },
  {
    "molecule": "NNC(=O)c1ccncc1 [Isoniazid, reference compound]",
    "MIC (µM)": 0.73
  }
]

Moving on to the next molecule.
## Task # MIC lookup, item COc1ccc(Br)c2c1C(Cc1ccc3c(c1)OCO3)NCC2 (stereo not drawn) [Compound 37]
## Result 106

###

- target under test: CYP 2C19 (Homo sapiens, UniProt P33261)
- Construct: purchased; host or cells: baculosomes (insect-cell microsomes; own knowledge)
- Sequence (P33261 whole entry): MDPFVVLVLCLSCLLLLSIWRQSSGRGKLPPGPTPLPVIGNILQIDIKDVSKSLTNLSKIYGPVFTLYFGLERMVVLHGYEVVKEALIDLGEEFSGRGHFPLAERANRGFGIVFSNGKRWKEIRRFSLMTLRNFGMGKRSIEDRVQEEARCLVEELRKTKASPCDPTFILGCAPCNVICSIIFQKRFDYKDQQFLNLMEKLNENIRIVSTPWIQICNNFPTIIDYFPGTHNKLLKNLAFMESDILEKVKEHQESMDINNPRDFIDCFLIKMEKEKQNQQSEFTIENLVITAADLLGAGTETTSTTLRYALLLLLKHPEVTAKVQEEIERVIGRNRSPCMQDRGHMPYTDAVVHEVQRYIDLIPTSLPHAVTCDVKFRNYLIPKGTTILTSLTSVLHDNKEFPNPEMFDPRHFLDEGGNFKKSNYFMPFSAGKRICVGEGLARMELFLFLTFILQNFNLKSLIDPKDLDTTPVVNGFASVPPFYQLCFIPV
- method: CYP450 inhibition assay, CYP 2C19
- Type: in vitro ADME
- Design: dose or concentration left out as unconfirmed
- condition summary: CYP baculosomes with recombinant human CYP2C19, probe fluorogenic substrate (not named); human recombinant enzymes; read-out: Mean % inhibtion CYP 2C19
- Method: The compounds originally dissolved in DMSO were added to PBS to give a resulting concentration of […]. CYP baculosomes containing cDNA for a single human P450 isozyme, the fluorogenic substrate and the NADPH were added to the test solution. The reaction was incubated at 37°C for at least 1 h. […] The inhibition of CYP prevents this metabolism, which corresponds to a decrease in the fluorescence signal. The fluorescence was measured on a plate reader.
observation type: inhibition (%)
Expressed in %, but write only the number.

Worked set:
[
  {
    "compound": "Oc1ccc(Br)c2c1C(Cc1ccc3c(c1)OCO3)NCC2 (stereo not drawn)",
    "target under test": "CYP 2C19 (Homo sapiens, UniProt P33261)",
    "inhibition, %": 97.5
  },
  {
    "compound": "Oc1ccc(Br)c2c1C(c1cccc3c1OCO3)NCC2 (stereo not drawn)",
    "target under test": "CYP 2C19 (Homo sapiens, UniProt P33261)",
    "inhibition, %": 98.2
  }
]

## Task # inhibition lookup, item O=c1cc(-c2ccccc2)oc2c1ccc1ccccc12 [α-naphthoflavone, reference compound]
## Result 100

###

- Test system: murine macrophage cell line RAW264.7
- method: Eukaryotic cell toxicity assay, RAW264.7
- Format: cell-based
- condition summary: Mus musculus; murine macrophage cell line RAW264.7; read-out: GIC50 RAW264.7
observation type: log10 of IC50 (log10 of the value in µg/mL)
Plainly stated, the numbers are log10 of IC50 given in µg/mL.

Worked set:
[
  {
    "compound": "Oc1cc2c(cc1O)C(c1cccc3c1OCO3)NCC2 (stereo not shown) [Compound 29]",
    "log10 of IC50": 1.88
  },
  {
    "compound": "Oc1cc2c(cc1O)[C@@H](O)CNC2c1cccc2c1OCO2 (stereo partly shown) [Compound 30]",
    "log10 of IC50": 1.95
  },
  {
    "compound": "Oc1cc2c(c(O)c1O)C(c1cccc3c1OCO3)NCC2 (stereo not shown) [Compound 33]",
    "log10 of IC50": 0.74
  },
  {
    "compound": "COc1ccc(Br)c2c1C(Cc1ccc3c(c1)OCO3)NCC2 (stereo not shown) [Compound 37]",
    "log10 of IC50": 1.48
  },
  {
    "compound": "Oc1cc2c(cc1O)C(C1CCCCC1)NCC2 (stereo not shown) [Compound 23]",
    "log10 of IC50": 1.65
  }
]

## Task Hi! What's the reported log10 of IC50 for Oc1ccc(CC2NCCc3cc(O)c(O)cc32)cc1 (stereo not shown) [Norcoclaurine (2), Norcoclaurine] on murine macrophage cell line RAW264.7?
## Result 2.63

## Task Hi! What's the reported log10 of IC50 for COc1cc(CC2NCCc3cc(O)c(O)cc32)ccc1O (stereo not shown) [Compound 19] on murine macrophage cell line RAW264.7?
## Result 1.70

## Task Hi! What's the reported log10 of IC50 for Nc1ccc2c(c1)CCNC2Cc1ccccc1 (stereo not shown) [Compound 15] on murine macrophage cell line RAW264.7?
## Result 2.27

## Task Hi! What's the reported log10 of IC50 for Oc1ccc(Br)c2c1C(Cc1ccc3c(c1)OCO3)NCC2 (stereo not shown) [Compound 28] on murine macrophage cell line RAW264.7?
## Result 1.67
